Assay: NCI Yeast Anticancer Drug Screen. Data for the mlh1 rad18 strain (AID 175)
Conditions: S. cerevisiae mlh1 rad18 strain growth inhibition; at 50.0 µM; active compounds read high
This is part of a sample that, as a whole, favours compounds with a hit. Of some 79,000 tested, about 15% had one in any assay. Calls of active or inactive are those of the source. Rule as the data show it: active = growth inhibition above about 70%; inactive = the rest.
ASSAY_ENDPOINT: growth inhibition

The reported growth inhibition of the compound O=[N+]([O-])c1cccc(/C=C/C=C/c2ccc(Cl)c(S(=O)(=O)F)c2)c1 was -7.1% (inactive)

Reported growth inhibition for C[C@]12CC[C@H](O)C[C@H]1CC[C@@H]1[C@@H]2CC[C@]2(C)[C@@H](C3=CC(=O)OC3)[C@@H](O)C[C@]12O was 8.1% (inactive)

The value of growth inhibition measured for the compound COc1cccc(C2CC23C(=O)NC(=O)NC3=O)c1 (stereo unspecified) turned out to be -21.2% (inactive)

Entry Cc1cc(C=C2C(=O)NC(=S)NC2=O)c(C)n1-c1ccccc1 ; growth inhibition = 5.15% (inactive)

Memo: C1CN2CN3CCN(CN1C3)C2 , reported growth inhibition: 13.8% (inactive)

Record CN(C)c1ccc(SC(Cl)(Cl)Cl)cc1 . Reported growth inhibition: -4.75% (inactive)

Reported growth inhibition ( CCC1(CC)C(=O)NC(=O)N(C)C1=O ) = 24.7% (inactive)

According to the records, this compound O=c1[nH]c2ccccc2c(=O)n1-c1ccccc1 displays growth inhibition of -15.4% (inactive)

Noted for O=c1cccc(C2CC(CO)C3CCCCN3C2)[nH]1 (stereo unspecified) : its growth inhibition reads -50.8% (inactive)

The value of growth inhibition measured for the compound CC1(C(N)Cc2c[nH]c3ccccc23)OCCO1 (stereo unspecified) turned out to be 4.1% (inactive)

// sample CC(C)C12C=C3CCC4C(C)(C(=O)O)CCCC4(C)C3(CC1)OO2 (stereo unspecified) , its growth inhibition was 96.9% (active)

Data credit: PubChem BioAssay (NCI)
